tested on: CYP1A2 (Homo sapiens)
Sequence (P05177 1-516): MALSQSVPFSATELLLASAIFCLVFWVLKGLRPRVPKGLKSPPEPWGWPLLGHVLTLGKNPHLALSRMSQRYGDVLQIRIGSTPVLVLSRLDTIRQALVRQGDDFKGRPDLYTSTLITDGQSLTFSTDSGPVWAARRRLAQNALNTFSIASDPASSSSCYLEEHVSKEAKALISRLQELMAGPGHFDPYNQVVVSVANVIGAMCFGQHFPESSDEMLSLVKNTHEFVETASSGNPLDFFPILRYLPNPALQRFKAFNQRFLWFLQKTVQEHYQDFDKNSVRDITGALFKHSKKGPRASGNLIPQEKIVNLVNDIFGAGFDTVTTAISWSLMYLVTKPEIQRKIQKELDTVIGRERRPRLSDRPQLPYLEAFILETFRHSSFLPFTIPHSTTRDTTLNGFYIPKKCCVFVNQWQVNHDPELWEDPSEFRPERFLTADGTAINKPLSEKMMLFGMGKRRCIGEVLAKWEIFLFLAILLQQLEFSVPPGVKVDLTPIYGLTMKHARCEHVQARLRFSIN
experimental protocol: CYP inhibition assay, CYP1A2
Assay type: in vitro ADME
experimental context: 10 μM
reported property: inhibition at 10 µM (%)
Give bare numbers, in %.

Request: For N[C@@]1(c2ccccc2Cl)CCC[C@@H](O)C1=O [2R,6R-hydroxynorketamine] , write its inhibition at 10 µM.
Response: 19.3
